- Study target: T1, recombinant human laminin-521 (human, UniProt O15230 36-3695; P55268 33-1798; P11047 34-1609)
- T1 construct: laminin subunit alpha-5, human; chain told by the isoform's name; laminin subunit beta-2, human; laminin subunit gamma-1, human; also called laminin isoform-521; source: bought: BioLamina (recombinant human, >95% purity); copies: + +
- Measurement notes: ELISA; plates coated with 50 nM GF or chemokine in PBS; 10 nM laminin isoform in PBS added; bound laminin detected with anti-LAMC1 or anti-LAMA3 polyclonal antibody; A450 signals greater than 0.1 taken as binding; BSA-coated wells as control
- Test conditions: both partners purified
Readout: binding result

Worked examples follow.
[
  {
    "Binder": "FGF-7 (ligand, UniProt P21781 32-194, looked up, fibroblast growth factor 7, bought in its mature form; source: bought: PeproTech; produced in Escherichia coli) CNDMTPEQMATNVNCSSPERHTRSYDYMEGGDIRVRRLFCRTQWYLRIDKRGKVKGTQEMKNNYNIMEIRTVAVGIVAIKGVESEFYLAMNKEGKLYAKKECNEDCNFKELILENHYNTYASAKWTHNGGEMFVALNQKGIPVRGKKTKKEQKTAHFLPMAIT",
    "Readout": "binding result",
    "Result": "binds"
  },
  {
    "Binder": "FGF-10 (ligand, UniProt O15520 38-208, looked up, fibroblast growth factor 10, bought in its mature form; source: bought: PeproTech; produced in Escherichia coli) QALGQDMVSPEATNSSSSSFSSPSSAGRHVRSYNHLQGDVRWRKLFSFTKYFLKIEKNGKVSGTKKENCPYSILEITSVEIGVVAVKAINSNYYLAMNKKGKLYGSKEFNNDCKLKERIEENGYNTYASFNWQHNGRQMYVALNGKGAPRRGQKTRRKNTSAHFLPMVVHS",
    "Readout": "binding result",
    "Result": "binds"
  },
  {
    "Binder": "BMP-3 (ligand, UniProt P12645 363-472, looked up, bone morphogenetic protein 3, bought in its mature form; source: bought: PeproTech; produced in Escherichia coli) QWIEPRNCARRYLKVDFADIGWSEWIISPKSFDAYYCSGACQFPMPKSLKPSNHATIQSIVRAVGVVPGIPEPCCVPEKMSSLSILFFDENKNVVLKVYPNMTVESCACR",
    "Readout": "binding result",
    "Result": "binds"
  },
  {
    "Binder": "FGF-18 (ligand, UniProt O76093 28-207, looked up, fibroblast growth factor 18, bought in its mature form; source: bought: PeproTech; produced in Escherichia coli) EENVDFRIHVENQTRARDDVSRKQLRLYQLYSRTSGKHIQVLGRRISARGEDGDKYAQLLVETDTFGSQVRIKGKETEFYLCMNRKGKLVGKPDGTSKECVFIEKVLENNYTALMSAKYSGWYVGFTKKGRPRKGPKTRENQQDVHFMKRYPKGQPELQKPFKYTTVTKRSRRIRPTHPA",
    "Readout": "binding result",
    "Result": "binds"
  }
]

Continue with the next binder.
[ask] Requested field: binding result. Item: BMP-2 (ligand, UniProt P12643 283-396, looked up, bone morphogenetic protein 2, bought in its mature form; source: bought: PeproTech; produced in Escherichia coli) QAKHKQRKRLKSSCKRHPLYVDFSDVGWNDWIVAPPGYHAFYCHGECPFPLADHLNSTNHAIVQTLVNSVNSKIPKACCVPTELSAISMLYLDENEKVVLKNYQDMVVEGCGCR
[reply] binds
